B1: Homeobox protein SIX3, residues 212 to 262; numbered along this chain, O95343 (parent)
chain: CFKERTRSLLREWYLQDPYPNPSKKRELAQATGLTPTQVGNWFKNRRQRDR

variants of: B1; experiment: abundance fitness (aPCA) (normalised: wild type 0, dead -1); higher = more abundant; growth selection in yeast, the domain comes from the species named; conditions: Homo sapiens

>  <Variant id>
L28R

>  <abundance fitness>
-0.895

$$$$
>  <Variant id>
L28H

>  <abundance fitness>
-0.778

$$$$
>  <Variant id>
T35N

>  <abundance fitness>
-0.259

$$$$
>  <Variant id>
G33S

>  <abundance fitness>
-0.555

$$$$
>  <Variant id>
A31D

>  <abundance fitness>
-0.475

$$$$
>  <Variant id>
L28D

>  <abundance fitness>
-0.805

$$$$
>  <Variant id>
A31Y

>  <abundance fitness>
-0.349

$$$$
>  <Variant id>
E27H

>  <abundance fitness>
-0.446

$$$$
>  <Variant id>
L28N

>  <abundance fitness>
-0.99

$$$$
>  <Variant id>
R26T

>  <abundance fitness>
-0.091

$$$$
>  <Variant id>
T32V

>  <abundance fitness>
-0.257

$$$$
>  <Variant id>
Q38W

>  <abundance fitness>
-0.774

$$$$
>  <Variant id>
G33T

>  <abundance fitness>
-0.766

$$$$
>  <Variant id>
T37P

>  <abundance fitness>
-0.416

$$$$
>  <Variant id>
S23D

>  <abundance fitness>
0.175

$$$$
>  <Variant id>
P36Q

>  <abundance fitness>
-0.235

$$$$
>  <Variant id>
G33K

>  <abundance fitness>
-0.494

$$$$
>  <Variant id>
T37G

>  <abundance fitness>
-0.126

$$$$
>  <Variant id>
G40F

>  <abundance fitness>
-0.858

$$$$
>  <Variant id>
T35W

>  <abundance fitness>
-0.848

$$$$
>  <Variant id>
K24I

>  <abundance fitness>
-0.072

$$$$
>  <Variant id>
G33P

>  <abundance fitness>
-0.746

$$$$
>  <Variant id>
T37E

>  <abundance fitness>
0.164

$$$$
>  <Variant id>
G33V

>  <abundance fitness>
-0.779

$$$$
>  <Variant id>
G33E

>  <abundance fitness>
-0.915

$$$$
>  <Variant id>
N41I

>  <abundance fitness>
-0.627

$$$$
>  <Variant id>
P22Y

>  <abundance fitness>
-0.102

$$$$
>  <Variant id>
P36T

>  <abundance fitness>
-0.066

$$$$
>  <Variant id>
A31I

>  <abundance fitness>
-0.148

$$$$
>  <Variant id>
K24G

>  <abundance fitness>
-0.417

$$$$
>  <Variant id>
Q30R

>  <abundance fitness>
-0.329

$$$$
>  <Variant id>
A29R

>  <abundance fitness>
-1.11

$$$$
>  <Variant id>
Q38P

>  <abundance fitness>
-1.13

$$$$
>  <Variant id>
P22E

>  <abundance fitness>
0.055

$$$$
>  <Variant id>
R26S

>  <abundance fitness>
-0.045

$$$$
>  <Variant id>
T32Q

>  <abundance fitness>
-1.23

$$$$
>  <Variant id>
G33I

>  <abundance fitness>
-0.902

$$$$
>  <Variant id>
L28T

>  <abundance fitness>
-0.876

$$$$
>  <Variant id>
V39N

>  <abundance fitness>
-1.01

$$$$
>  <Variant id>
Q38H

>  <abundance fitness>
-0.81

$$$$
>  <Variant id>
Q38S

>  <abundance fitness>
-0.676

$$$$
>  <Variant id>
K25T

>  <abundance fitness>
0.133

$$$$
>  <Variant id>
N21Y

>  <abundance fitness>
-0.873

$$$$
>  <Variant id>
S23F

>  <abundance fitness>
-0.343

$$$$
>  <Variant id>
G40D

>  <abundance fitness>
-0.227

$$$$
>  <Variant id>
L28F

>  <abundance fitness>
-0.07

$$$$
